Numbers sourced from ChEMBL document CHEMBL1157553.

Reported values of MIC for individual entries
- Test system: Pseudomonas aeruginosa
- EXPERIMENT DESCRIPTION: Antibacterial activity against aminoglycoside-resistant Pseudomonas aeruginosa ATCC 27853 after 12 to 18 hrs
- Assay type: functional

>  <LINE NOTATION>
NC[C@H]1O[C@H](O[C@H]2[C@H](O)[C@@H](O)[C@H](N)C[C@@H]2N)[C@H](N)[C@@H](O)[C@@H]1O

>  <MIC>
64 µg/mL

$$$$
>  <LINE NOTATION>
CCCCCCNC(=O)O[C@@H]1[C@@H](OC(=O)NCCCCCC)[C@H](N)C[C@H](N)[C@H]1O[C@H]1O[C@H](CN)[C@@H](O)[C@H](O)[C@H]1N

>  <MIC>
125 µg/mL

$$$$
>  <LINE NOTATION>
CCCCCCNC(=O)O[C@@H]1[C@@H](O)[C@H](O[C@H]2O[C@H](CN)[C@@H](O)[C@H](O)[C@H]2N)[C@@H](N)C[C@H]1N

>  <MIC>
64 µg/mL

$$$$
>  <LINE NOTATION>
CCCCCCNC(=O)O[C@@H]1[C@@H](O)[C@H](O[C@H]2O[C@H](CN)CC[C@H]2N)[C@@H](N)C[C@H]1N

>  <MIC>
16 µg/mL

$$$$
>  <LINE NOTATION>
CCCCCCNC(=O)O[C@@H]1[C@@H](OC(=O)NCCCCCC)[C@H](N)C[C@H](N)[C@H]1O[C@@H]1CC[C@H](N)[C@@H](CN)O1

>  <MIC>
16 µg/mL

$$$$
>  <LINE NOTATION>
CCCCCCNC(=O)O[C@@H]1[C@@H](O)[C@H](O[C@@H]2CC[C@H](N)[C@@H](CN)O2)[C@@H](N)C[C@H]1N

>  <MIC>
16 µg/mL

$$$$

====

- System: Staphylococcus aureus
- EXPERIMENT DESCRIPTION: Antibacterial activity against aminoglycoside-resistant Staphylococcus aureus ATCC 33591 after 12 to 18 hrs
- Format: functional
RECORDED METRIC: MIC (µg/mL)

>  <MOLECULE>
CCCCCCNC(=O)O[C@@H]1[C@@H](O)[C@H](O[C@@H]2CC[C@H](N)[C@@H](CN)O2)[C@@H](N)C[C@H]1N

>  <QUALIFIER SIGN>
=

>  <EXPERIMENTAL RESULT>
64

$$$$
>  <MOLECULE>
CCCCCCNC(=O)O[C@@H]1[C@@H](O)[C@H](O[C@H]2O[C@H](CN)[C@@H](O)[C@H](O)[C@H]2N)[C@@H](N)C[C@H]1N

>  <QUALIFIER SIGN>
≥

>  <EXPERIMENTAL RESULT>
250

$$$$
>  <MOLECULE>
NC[C@H]1O[C@H](O[C@H]2[C@H](O)[C@@H](O)[C@H](N)C[C@@H]2N)[C@H](N)[C@@H](O)[C@@H]1O [NEAMINE]

>  <QUALIFIER SIGN>
=

>  <EXPERIMENTAL RESULT>
125

$$$$
>  <MOLECULE>
CCCCCCNC(=O)O[C@@H]1[C@@H](OC(=O)NCCCCCC)[C@H](N)C[C@H](N)[C@H]1O[C@@H]1CC[C@H](N)[C@@H](CN)O1

>  <QUALIFIER SIGN>
=

>  <EXPERIMENTAL RESULT>
16

$$$$
>  <MOLECULE>
CCCCCCNC(=O)O[C@@H]1[C@@H](OC(=O)NCCCCCC)[C@H](N)C[C@H](N)[C@H]1O[C@H]1O[C@H](CN)[C@@H](O)[C@H](O)[C@H]1N

>  <QUALIFIER SIGN>
=

>  <EXPERIMENTAL RESULT>
125

$$$$
>  <MOLECULE>
CCCCCCNC(=O)O[C@@H]1[C@@H](O)[C@H](O[C@H]2O[C@H](CN)CC[C@H]2N)[C@@H](N)C[C@H]1N

>  <QUALIFIER SIGN>
=

>  <EXPERIMENTAL RESULT>
64

$$$$

====

- Test system: Klebsiella pneumoniae
- EXPERIMENT DESCRIPTION: Antibacterial activity against aminoglycoside-susceptible Klebsiella pneumoniae ATCC 13883 after 12 to 18 hrs
- Format: functional

>  <LINE NOTATION>
CCCCCCNC(=O)O[C@@H]1[C@@H](O)[C@H](O[C@H]2O[C@H](CN)[C@@H](O)[C@H](O)[C@H]2N)[C@@H](N)C[C@H]1N

>  <SUBJECT OF TEST>
Klebsiella pneumoniae

>  <MIC / µg/mL>
16

$$$$
>  <LINE NOTATION>
CCCCCCNC(=O)O[C@@H]1[C@@H](O)[C@H](O[C@@H]2CC[C@H](N)[C@@H](CN)O2)[C@@H](N)C[C@H]1N

>  <SUBJECT OF TEST>
Klebsiella pneumoniae

>  <MIC / µg/mL>
16

$$$$
>  <LINE NOTATION>
CCCCCCNC(=O)O[C@@H]1[C@@H](O)[C@H](O[C@H]2O[C@H](CN)CC[C@H]2N)[C@@H](N)C[C@H]1N

>  <SUBJECT OF TEST>
Klebsiella pneumoniae

>  <MIC / µg/mL>
16

$$$$
>  <LINE NOTATION>
CCCCCCNC(=O)O[C@@H]1[C@@H](OC(=O)NCCCCCC)[C@H](N)C[C@H](N)[C@H]1O[C@H]1O[C@H](CN)[C@@H](O)[C@H](O)[C@H]1N

>  <SUBJECT OF TEST>
Klebsiella pneumoniae

>  <MIC / µg/mL>
32

$$$$
>  <LINE NOTATION>
NC[C@H]1O[C@H](O[C@H]2[C@H](O)[C@@H](O)[C@H](N)C[C@@H]2N)[C@H](N)[C@@H](O)[C@@H]1O

>  <SUBJECT OF TEST>
Klebsiella pneumoniae

>  <MIC / µg/mL>
2

$$$$
>  <LINE NOTATION>
CCCCCCNC(=O)O[C@@H]1[C@@H](OC(=O)NCCCCCC)[C@H](N)C[C@H](N)[C@H]1O[C@@H]1CC[C@H](N)[C@@H](CN)O1

>  <SUBJECT OF TEST>
Klebsiella pneumoniae

>  <MIC / µg/mL>
4

$$$$
